Target: T1, HRP-2 (Histidine-Rich Protein 2) (UniProt P05227 P05227:22-332)
T1 sequence: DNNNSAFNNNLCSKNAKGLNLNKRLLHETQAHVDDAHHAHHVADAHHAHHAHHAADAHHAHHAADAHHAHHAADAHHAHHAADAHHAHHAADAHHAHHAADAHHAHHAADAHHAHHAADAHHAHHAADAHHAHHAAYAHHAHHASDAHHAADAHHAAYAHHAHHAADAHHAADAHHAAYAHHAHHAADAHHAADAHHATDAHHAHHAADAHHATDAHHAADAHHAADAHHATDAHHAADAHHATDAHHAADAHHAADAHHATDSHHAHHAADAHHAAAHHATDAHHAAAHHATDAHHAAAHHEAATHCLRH
Experiment: flow; PBSMCT buffer; 0.124 nM in 10% human serum
Conditions: tags: His-Tag; Fitzgerald Industries International
pKd: −log10 of the molar value.

- BINDER: "HRP-2-702 (ssDNA, immobilized on magnetic particles) DNA: ATCCAGAGTGACGCAGCATTAAATAGGGGTTTGGCTTTGGGTCTGGCATATAGGAACAAGTTTGGACACGGTGGCTTAGT"
  pKd: 9.89
